Recorded protein stability index by entry
B1: VTI1B (parent)
chain: NKLLLSIIILLELAILGGLVYYKF

- Variants of: B1
- protocol-notes: protein stability index of a GFP-peptide fusion (GPS, HEK-293T) (PSI 1-6); higher = more stable;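 note: lentivirally expressed fusions sorted by FACS into six bins by GFP to DsRed ratio, PSI derived from sequencing read proportions per bin multiplied by bin number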
- details: c terminus: a fixed tail appended
Give your answer as a number; write no unit.

Consider the following illustrative entries.
| alteration | protein stability index |
| --- | --- |
| L11E | 3.84 |
| F24G | 2.52 |

Prompt: Field request: protein stability index | item: "Y22G"
Completion: 3.7

Prompt: Field request: protein stability index | item: "Y21M"
Completion: 2.58

Prompt: Field request: protein stability index | item: "E12P"
Completion: 2.64

Prompt: Field request: protein stability index | item: "L11P"
Completion: 2.43

Prompt: Field request: protein stability index | item: "N1L"
Completion: 2.74

Prompt: Field request: protein stability index | item: "Y21H"
Completion: 2.32

Prompt: Field request: protein stability index | item: "L4V"
Completion: 2.82

Prompt: Field request: protein stability index | item: "L13G"
Completion: 3.93

Prompt: Field request: protein stability index | item: "Y21L"
Completion: 3.39

Reference for the values: the supplement of paper PMC10567573
